The reported numbers originate from patent US20130303575A1.

method-notes: Plasma pharmacokinetics of oral SNDX-275 in patients with advanced and refractory solid tumors or lymphoma (Example 2)
Type: in vivo
reported-conditions: human, plasma, oral, n=4; FIG. 6; read-out: mean AUC in patients experiencing DLTs

smiles-input: Nc1ccccc1NC(=O)c1ccc(CNC(=O)OCc2cccnc2)cc1
AUC (µg·h/mL): 0.517

----------
method-notes: clinical
reported-conditions: human, in vivo, 5 mg/m2, AUC(0-48)
Description: Histone H3 and H4 acetylation was analyzed in peripheral blood mononuclear cells (PBMCs) by immunohistochemical detection. Blood samples (5 ml) were taken at the following times: Blood was centrifuged for 10 minutes at 2000 g at room temperature within approximately 30 minutes after withdrawal; plasma was separated and stored at −18° C. to −25° C. until analysis.
measured-endpoint: AUC(0-t) (ng·h/mL)

smiles-input: Nc1ccccc1NC(=O)c1ccc(CNC(=O)OCc2cccnc2)cc1
measured-endpoint: AUC(0-t)
measure-unit: ng·h/mL
obs-value: 153
